# System: Aspergillus niger
MIC by entry:
API: value field is a number in µg/mL; no unit string.

Here's what some known entries look like.
{"compound": "CCCCCCCCCCCCN1CCCC(C)C1 (centres unmarked)", "MIC (µg/mL)": 256}
{"compound": "CCCCCCCCCCCCN1CCCC1", "MIC (µg/mL)": 128}

Problem: Look up MIC with Aspergillus niger for this compound: CCCCCCCCCCCCn1ccnc1
Result: 32

Problem: Look up MIC with Aspergillus niger for this compound: CCCCCCCCCCCCN1CCCCC1
Result: 32

* * *

MIC by entry:
# System: Chlorococcum hypnosporum
# measurement.protocol: Algae growth inhibition in Difco Algae Broth
# Assay type: cell-based
# condition.description: 672 h, C. hypnosporum, pH 7.0, 28 days, read-out: Minimum inhibitory concentration against algae
API: value field is a number in mg/L; no unit string.

{"compound": "CCCCCCCCCCCCn1ccnc1", "measured.attribute": "MIC", "quantitative.result": 0.7}
{"compound": "CCCCCCCCCCCCN1CC(CCl)OC1=O (stereo not shown)", "measured.attribute": "MIC", "quantitative.result": 100}

Problem: Reported MIC for CCCCCCCCCCCCN1CCOCC1 : what is it?
Result: 1

Problem: Reported MIC for CCCCCCCCCCCCN1CCCC(C)C1 (stereo not shown) : what is it?
Result: 1

Problem: Reported MIC for CCCCCCCCCCCCN1CCCC1=O : what is it?
Result: 10

* * *

# Test system: Chlorococcum hypnosporum
# measurement.protocol: Algae growth inhibition in Difco Algae Broth
# Type: cell-based
# condition.description: 672 h, pH 7, read-out: Minimum inhibitory concentration against algae
MIC by entry:
API: value field is a number in mg/L; no unit string.

Here's what some known entries look like.
{"molecule": "CCCCCCCCCCCCN1CCCCCC1 [Compound 6, N-Dodecylhexamethyleneimine]", "tgt": "Chlorococcum hypnosporum", "quantitative.result": 1}
{"molecule": "CCCCCCCCCCCCN1CCCC1 [Compound 7, N-Dodecylpyrrolidine]", "tgt": "Chlorococcum hypnosporum", "quantitative.result": 1}

For the next question, use this molecule.
Problem: Reported MIC for CCCCCCCCCCCCN1CCCCC1 [Compound 9, N-Dodecylpiperidine] : what is it?
Result: 1

* * *

System: Aspergillus niger | Read-out: MIC
API: value field is a number in µg/mL; no unit string.

Here's what some known entries look like.
{"molecule": "CCCCCCCCCCCCN1CCCCCC1 [Compound 6, N-Dodecylhexamethyleneimine]", "measured.attribute": "MIC", "quantitative.result": 256}
{"molecule": "CCCCCCCCCCCCN1CCC(C)CC1 [Compound 10, N-Dodecyl-4-methylpiperidine]", "measured.attribute": "MIC", "quantitative.result": 1000}
{"molecule": "CCCCCCCCCCCCN1CCCCC1C (stereo not drawn) [Compound 11, N-Dodecyl-2-methylpiperidine]", "measured.attribute": "MIC", "quantitative.result": 1000}
{"molecule": "CCCCCCCCCCCCN1CCCC1=O [Compound 5, N-Dodecyl-2-pyrrolidinone]", "measured.attribute": "MIC", "quantitative.result": 32}

For the next question, use this molecule.
Problem: Reported MIC for CCCCCCCCCCCCN1CC(C)OC(C)C1 (stereo not drawn) [Compound 3, N-dodecyl-2,6-dimethylmorpholine] : what is it?
Result: 128

* * *

# Tested on: E. aerogenes
# measurement.protocol: Pulp substrate method, minimum inhibitory concentration
# Format: cell-based
# condition.description: pH 8.0, at least 80% kill
measured.attribute: Minimum inhibitory concentration
In your answer, state the number alone without any accompanying words.

Here's what some known entries look like.
{"compound": "CCCCCCCCCCCCN1CCOCC1", "Minimum inhibitory concentration": 25}
{"compound": "CCCCCCCCCCCCN1CC(CCl)OC1=O (centres unmarked)", "Minimum inhibitory concentration": 1000}
{"compound": "CCCCCCCCCCCCN1CCCCC1", "Minimum inhibitory concentration": 1000}
{"compound": "CCCCCCCCCCCCN1CCCCCC1", "Minimum inhibitory concentration": 1000}
{"compound": "CCCCCCCCCCCCN1CC(C)OC(C)C1 (centres unmarked)", "Minimum inhibitory concentration": 1000}

For the next question, use this compound.
Problem: Reported Minimum inhibitory concentration for CCCCCCCCCCCCN1CCCC1=O : what is it?
Result: 1000

* * *

# System: E. aerogenes
# measurement.protocol: Pulp substrate method, minimum inhibitory concentration
# Assay type: cell-based
# condition.description: pH 6.0, at least 80% kill
Minimum inhibitory concentration by entry:
In your answer, state the number alone without any accompanying words.

{"compound": "CCCCCCCCCCCCN1CCC(C)CC1", "Minimum inhibitory concentration": 100}

Problem: Reported Minimum inhibitory concentration for CCCCCCCCCCCCN1CCCC(C)C1 (centres unmarked) : what is it?
Result: 1000

* * *

# Test system: E. aerogenes
# measurement.protocol: Pulp substrate method, minimum inhibitory concentration
# Type: cell-based
# condition.description: pH 8.0, at least 80% kill
Minimum inhibitory concentration by entry:

{"compound": "CCCCCCCCCCCCN1CCCC1", "Minimum inhibitory concentration": "> 1000"}

Problem: Reported Minimum inhibitory concentration for CCCCCCCCCCCCN1CCCC(C)C1 (centres unmarked) : what is it?
Result: > 1000

Problem: Reported Minimum inhibitory concentration for CCCCCCCCCCCCn1ccnc1 : what is it?
Result: > 1000

Problem: Reported Minimum inhibitory concentration for CCCCCCCCCCCCN1CCCCC1C (centres unmarked) : what is it?
Result: > 1000

Problem: Reported Minimum inhibitory concentration for CCCCCCCCCCCCN1CCC(C)CC1 : what is it?
Result: > 1000

* * *

Minimum inhibitory concentration by entry:
# Tested on: E. aerogenes
# measurement.protocol: Pulp substrate method, minimum inhibitory concentration
# Assay type: cell-based
# condition.description: pH 6.0, at least 80% kill
In your answer, state the number alone without any accompanying words.

Here's what some known entries look like.
{"compound": "CCCCCCCCCCCCN1CCCC1=O [Compound 5, N-Dodecyl-2-pyrrolidinone]", "quantitative.result": 1000}
{"compound": "CCCCCCCCCCCCn1ccnc1 [Compound 2, N-Dodecylimidazole]", "quantitative.result": 1000}
{"compound": "CCCCCCCCCCCCN1CCOCC1 [Compound 1, N-Dodecylmorpholine]", "quantitative.result": 25}
{"compound": "CCCCCCCCCCCCN1CCCCC1 [Compound 9, N-Dodecylpiperidine]", "quantitative.result": 1000}
{"compound": "CCCCCCCCCCCCN1CCCCC1C (stereo not drawn) [Compound 11, N-Dodecyl-2-methylpiperidine]", "quantitative.result": 100}

Problem: Reported Minimum inhibitory concentration for CCCCCCCCCCCCN1CC(C)OC(C)C1 (stereo not drawn) [Compound 3, N-dodecyl-2,6-dimethylmorpholine] : what is it?
Result: 1000

Problem: Reported Minimum inhibitory concentration for CCCCCCCCCCCCN1CC(CCl)OC1=O (stereo not drawn) [Compound 4, N-dodecyl-5-chloromethyl-2-oxazolidinone] : what is it?
Result: 1000

Problem: Reported Minimum inhibitory concentration for CCCCCCCCCCCCN1CCCC1 [Compound 7, N-Dodecylpyrrolidine] : what is it?
Result: 1000
